- target_entity: HDAC 3 (Homo sapiens, UniProt O15379)
- Sequence (O15379 whole entry): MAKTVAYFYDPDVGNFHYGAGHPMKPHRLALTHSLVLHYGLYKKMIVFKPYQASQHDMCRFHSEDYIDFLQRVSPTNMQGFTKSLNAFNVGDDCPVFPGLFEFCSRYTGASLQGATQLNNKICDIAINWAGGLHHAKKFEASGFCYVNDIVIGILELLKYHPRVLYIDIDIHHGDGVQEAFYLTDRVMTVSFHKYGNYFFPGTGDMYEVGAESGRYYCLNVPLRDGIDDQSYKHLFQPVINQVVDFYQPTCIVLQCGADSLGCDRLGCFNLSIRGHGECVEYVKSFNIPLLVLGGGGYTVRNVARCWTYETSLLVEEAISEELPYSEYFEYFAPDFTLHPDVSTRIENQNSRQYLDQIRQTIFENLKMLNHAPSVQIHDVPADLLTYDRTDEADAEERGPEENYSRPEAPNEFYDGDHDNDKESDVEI
- Sequence (Q9Y618 395-489 partner limits assumed): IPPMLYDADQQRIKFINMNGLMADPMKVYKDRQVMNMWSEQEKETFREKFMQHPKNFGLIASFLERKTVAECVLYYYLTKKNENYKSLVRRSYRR
pIC50: −log10 of the molar value.

| smiles_entry | pIC50 |
| --- | --- |
| O=C(NO)C1=CCN(S(=O)(=O)c2ccc(-c3ccc(O)cc3)cc2)CC1 | 6.30 to 7.00 |

----------
EC50 listing for selected compounds.
- Test system: HepG2 cells
- method_notes: Cell growth inhibition measurement (CCK-8), HepG2
- Type: cell-based
- measurement_parameters: Homo sapiens, HepG2, 72 h, highest EC50 measured during one or multiple operations, read-out: Inhibition activity against cancer cells, HepG2 (EC50)
- From the text: A HepG2 cell strain and an HCT-116 cell strain were purchased from Shanghai Institutes for Biological Sciences; a DMEM high-sugar culture medium and an MEM culture medium were purchased from Hyclone; fetal calf serum was purchased from Gibco; trypsin was purchased from Invitrogen Shanghai; a CCK-8 kit was purchased from Beyotime Institute of Biotechnology; and, the remaining cell culture mediums and other consumables were purchased from Corning China. […]
experimental_readout: EC50

| compound | experimental_value |
| --- | --- |
| CN(C)Cc1ccc(-c2ccc(S(=O)(=O)N3CC=C(C(=O)NO)CC3)cc2)cc1 | < 0.1 µM |
| CN1CCCN(c2ccc(-c3ccc(S(=O)(=O)N4CC=C(C(=O)NO)CC4)cc3)cn2)CC1 | < 0.1 µM |
| CN(C)CCc1ccc(-c2ccc(S(=O)(=O)N3CC=C(C(=O)NO)CC3)cc2)cc1 | < 0.1 µM |
| O=C(NO)C1=CCN(S(=O)(=O)c2ccc(-c3cnn(C4CCNCC4)c3)cc2)CC1 | > 0.1 µM |
| CN1CCC(n2cc(-c3ccc(S(=O)(=O)N4CC=C(C(=O)NO)CC4)cc3)cn2)CC1 | > 0.1 µM |
| CN1CCN(c2ccc(-c3ccc(S(=O)(=O)N4CC=C(C(=O)NO)CC4)cc3)cc2)CC1 | < 0.1 µM |
| CN1CCN(c2ccc(-c3ccc(S(=O)(=O)N4CC=C(C(=O)NO)CC4)cc3F)cc2)CC1 | < 0.1 µM |
| O=C(NO)C1=CCN(S(=O)(=O)c2ccc(-c3ccc(N4CCNCC4)cc3)cc2)CC1 | < 0.1 µM |
| CN1CCN(c2ccc(-c3ccc(S(=O)(=O)N4CC=C(C(=O)NO)CC4)cc3)cn2)CC1 | < 0.1 µM |
| CN1CCN(c2ccc(-c3ccc(S(=O)(=O)N4C=CC(C(=O)NO)CC4)cc3)cc2)CC1 (stereo not shown) | < 0.1 µM |
| O=C(NO)C1=CCN(S(=O)(=O)c2ccc(-c3ccc(CN4CCOCC4)cc3)cc2)CC1 | < 0.1 µM |
| CN1CCN(c2ccc(-c3ccc(S(=O)(=O)N4CCC=C(C(=O)NO)CC4)cc3)cc2)CC1 | > 0.1 µM |
| CN(C)CCNC(=O)c1ccc(-c2ccc(S(=O)(=O)N3CC=C(C(=O)NO)CC3)cc2)cc1 | > 0.1 µM |
| CCN(CC)Cc1ccc(-c2ccc(S(=O)(=O)N3CC=C(C(=O)NO)CC3)cc2)cc1 | < 0.1 µM |
| CN1CCN(c2ccc(-c3ccc(S(=O)(=O)N4CC=C(C(=O)NO)CC4)cn3)cc2)CC1 | < 0.1 µM |
| COCCN1CCN(c2ccc(-c3ccc(S(=O)(=O)N4CC=C(C(=O)NO)CC4)cc3)cc2)CC1 | < 0.1 µM |

----------
- target_entity: HDAC 6 (Homo sapiens)
- Sequence (Q9UBN7 1-1215): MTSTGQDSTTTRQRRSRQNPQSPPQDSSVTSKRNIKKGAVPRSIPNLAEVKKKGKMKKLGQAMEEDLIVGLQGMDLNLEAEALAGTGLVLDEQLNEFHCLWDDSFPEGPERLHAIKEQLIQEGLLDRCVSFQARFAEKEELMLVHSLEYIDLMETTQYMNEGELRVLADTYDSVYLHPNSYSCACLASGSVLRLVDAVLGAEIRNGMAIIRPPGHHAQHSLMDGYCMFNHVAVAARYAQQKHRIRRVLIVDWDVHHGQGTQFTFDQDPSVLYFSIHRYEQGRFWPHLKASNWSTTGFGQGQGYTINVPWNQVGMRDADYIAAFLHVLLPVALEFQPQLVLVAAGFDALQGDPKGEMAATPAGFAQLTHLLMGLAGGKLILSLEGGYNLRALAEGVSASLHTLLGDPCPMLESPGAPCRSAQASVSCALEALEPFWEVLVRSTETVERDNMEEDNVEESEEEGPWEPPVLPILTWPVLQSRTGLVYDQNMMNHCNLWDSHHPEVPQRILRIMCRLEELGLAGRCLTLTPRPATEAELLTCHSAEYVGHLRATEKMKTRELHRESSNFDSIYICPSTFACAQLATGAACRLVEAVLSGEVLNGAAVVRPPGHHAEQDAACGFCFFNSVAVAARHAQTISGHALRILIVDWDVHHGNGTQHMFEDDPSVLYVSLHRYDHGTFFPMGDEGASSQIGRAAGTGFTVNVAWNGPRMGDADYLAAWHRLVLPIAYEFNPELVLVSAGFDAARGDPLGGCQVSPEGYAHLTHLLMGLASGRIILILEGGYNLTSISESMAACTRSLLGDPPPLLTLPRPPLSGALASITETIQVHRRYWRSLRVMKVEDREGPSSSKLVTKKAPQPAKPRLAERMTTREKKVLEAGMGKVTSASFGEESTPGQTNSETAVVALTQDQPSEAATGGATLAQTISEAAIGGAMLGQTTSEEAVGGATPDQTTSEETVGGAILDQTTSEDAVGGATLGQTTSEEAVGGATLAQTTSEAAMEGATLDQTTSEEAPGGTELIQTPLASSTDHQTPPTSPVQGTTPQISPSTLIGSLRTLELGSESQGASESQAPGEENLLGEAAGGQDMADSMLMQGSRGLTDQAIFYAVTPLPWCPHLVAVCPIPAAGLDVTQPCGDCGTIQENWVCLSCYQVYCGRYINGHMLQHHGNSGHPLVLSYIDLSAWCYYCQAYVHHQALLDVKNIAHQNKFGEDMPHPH
IC50 listing for selected compounds.
experimental_readout: IC50

| smiles_entry | experimental_value |
| --- | --- |
| CN1CCN(c2ccc(-c3ccc(S(=O)(=O)N4CC=C(C(=O)NO)CC4)cc3)cc2)CC1 | < 0.1 µM |
| CN1CCN(c2ccc(-c3ccc(S(=O)(=O)N4CCC=C(C(=O)NO)CC4)cc3)cc2)CC1 | < 0.1 µM |
| O=C(NO)C1=CCN(S(=O)(=O)c2ccc(-c3ccc(CN4CCCCC4)cc3)cc2)CC1 | < 0.1 µM |
